Tested on: Tera-2 testicular cancer cells
measurement_description: MTT cytotoxicity assay of vanadocenes, TERA-2 cells
Assay type: cell-based, human
condition_description: 24 h, 1.9-250 μM
property_label: IC50 (µM)
Hi! Could you send only the number? It should be in µM, unit omitted.

Solved entries (count: 2):
molecule_smiles=CC(=O)[CH-]C(C)=O.O=S(=O)([O-])C(F)(F)F.[V+4].c1cc[cH-]c1.c1cc[cH-]c1 data_value=64
molecule_smiles=CC#N.[Cl-].[Cl-].[Cl-].[Cl-].[Cl-].[Fe+3].[V+4].c1cc[cH-]c1.c1cc[cH-]c1 data_value=100

**Q:** Entry C1=C[CH]([V+2][CH]2C=CC=C2)C=C1.[N-]=C=[Se].[N-]=C=[Se] has what IC50?
**A:** 9
